- Test Target: Glucocorticoid receptor (Homo sapiens)
- Sequence (P04150 whole entry): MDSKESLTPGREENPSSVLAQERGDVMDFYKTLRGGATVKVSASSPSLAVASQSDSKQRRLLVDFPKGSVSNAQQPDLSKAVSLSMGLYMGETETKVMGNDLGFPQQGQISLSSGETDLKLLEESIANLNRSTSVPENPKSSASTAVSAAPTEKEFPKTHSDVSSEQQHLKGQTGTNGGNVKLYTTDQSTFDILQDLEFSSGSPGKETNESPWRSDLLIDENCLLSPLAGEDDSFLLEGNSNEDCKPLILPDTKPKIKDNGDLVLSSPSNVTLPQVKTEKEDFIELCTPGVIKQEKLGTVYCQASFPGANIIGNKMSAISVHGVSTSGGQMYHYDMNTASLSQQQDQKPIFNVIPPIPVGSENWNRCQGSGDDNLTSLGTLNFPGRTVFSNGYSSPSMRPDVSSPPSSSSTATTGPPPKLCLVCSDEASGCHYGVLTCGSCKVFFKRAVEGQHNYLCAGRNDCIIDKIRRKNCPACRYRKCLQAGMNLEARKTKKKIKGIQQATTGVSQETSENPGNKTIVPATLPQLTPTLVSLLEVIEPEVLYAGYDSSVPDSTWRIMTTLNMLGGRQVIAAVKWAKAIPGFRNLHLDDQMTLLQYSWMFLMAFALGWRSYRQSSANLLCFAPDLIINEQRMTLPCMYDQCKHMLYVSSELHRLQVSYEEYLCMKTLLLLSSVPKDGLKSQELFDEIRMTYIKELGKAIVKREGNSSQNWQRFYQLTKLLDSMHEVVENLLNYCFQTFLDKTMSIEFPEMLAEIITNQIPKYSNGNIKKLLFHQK
- Method Notes: Agonist activity at glucocorticoid receptor in HFF assessed as inhibition of IL1-induced IL-6 production after 18 to 24 hrs
- Type: functional
Measurement Kind: IC50 (nM)
Numeric only. Scale: nM

Recorded IC50, per entry:
In [3]: df
Out[3]:
                                   molecule                             test_target  measured
0  COc1ccc(F)cc1C(C)(C)CC(O)(Cc1cc2cc(C#N)ccc2[nH]1)C(F)(F)F (racemic)  Glucocorticoid receptor (Homo sapiens)        11
1  CC(C)(CC(O)(Cc1cc2ccc(C#N)cc2[nH]1)C(F)(F)F)c1cc(S(C)(=O)=O)cc2c1OCC2 (racemic)  Glucocorticoid receptor (Homo sapiens)        39

Inquiry: Record request: IC50 value, item COc1ccc(F)cc1C(C)(C)CC(O)(Cc1cc2cccc(F)c2[nH]1)C(F)(F)F (racemic)
Reply text: 36

This collection of values is drawn from ChEMBL document CHEMBL1909618.
